molecular target: cAMP pathway of MOR receptor (Homo sapiens, UniProt P35372); assay: cell-based; settings: cAMP Hunter HEK293 cells, forskolin-induced cAMP; read-out: EC50 of cAMP levels affected by agonistic effect on MOR
Sequence (P35372 whole entry): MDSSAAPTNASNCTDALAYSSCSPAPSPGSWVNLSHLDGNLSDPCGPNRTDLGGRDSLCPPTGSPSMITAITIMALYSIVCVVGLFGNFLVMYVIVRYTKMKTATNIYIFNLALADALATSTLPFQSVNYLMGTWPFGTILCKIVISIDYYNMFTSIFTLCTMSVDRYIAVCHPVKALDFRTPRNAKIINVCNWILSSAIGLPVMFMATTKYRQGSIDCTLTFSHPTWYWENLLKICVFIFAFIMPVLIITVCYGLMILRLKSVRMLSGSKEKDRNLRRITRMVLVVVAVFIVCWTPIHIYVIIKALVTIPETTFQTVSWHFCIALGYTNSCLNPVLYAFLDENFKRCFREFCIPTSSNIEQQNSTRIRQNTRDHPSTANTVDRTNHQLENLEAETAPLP
endpoint: EC50 (nM)
Could you give me the number in nM? Just the number is fine.

compound	EC50 [nM]
CNc1ccccc1CNCCC1(c2ccccn2)CCOC2(CCCC2)C1 (stereo not drawn)	4.36
N#Cc1cccc(CNCCC2(c3ccccn3)CCOC3(CCCC3)C2)c1OC(F)(F)F (stereo not drawn)	9.43
Cc1c(Cl)cccc1CNCCC1(c2ccccn2)CCOC2(CCCC2)C1 (stereo not drawn)	4.36
Oc1ccc(CNCCC2(c3ccccn3)CCOC3(CCCC3)C2)c(OC(F)(F)F)c1 (stereo not drawn)	4.28
COc1[nH]ncc1CNCCC1(c2ccccn2)CCOC2(CCCC2)C1 (stereo not drawn)	12.8
Cc1ccc(CNCCC2(c3ccc(F)cn3)CCOC3(CCCC3)C2)cc1C (stereo not drawn)	8.73
FC(F)Oc1ccccc1CNCCC1(c2ccccn2)CCOC2(CCCC2)C1 (stereo not drawn)	1.36
c1ccc(C2(CCN3CCc4ccsc4C3)CCOC3(CCCC3)C2)nc1 (stereo not drawn)	9.73

Please fill in: EC50 reported for FC(F)(F)Oc1c(Br)cccc1CNCCC1(c2ccccn2)CCOC2(CCCC2)C1 (stereo not drawn) = 14.2

Please fill in: EC50 reported for Fc1ccc(C2(CCNCc3ccccc3OC(F)(F)F)CCOC3(CCCC3)C2)nc1 (stereo not drawn) = 2.57

Please fill in: EC50 reported for COc1ccc2c(c1)CN(CCC1(c3ccccn3)CCOC3(CCCC3)C1)CC2 (stereo not drawn) = 19.9

Please fill in: EC50 reported for FC(F)(F)Oc1cccc(CNCCC2(c3ccccn3)CCOC3(CCCC3)C2)c1 (stereo not drawn) = 4.93

Please fill in: EC50 reported for FC(F)(F)Oc1ccccc1CNCCC1(c2ccccn2)CCOC2(CCCC2)C1 (stereo not drawn) = 11.9

###

system: SD rats; assay: Respiratory depression in rats, arterial blood gas PCO2; assay type: in vivo; conditions: intravenous single dose 0.3 mg/kg (morphine 24 mg/kg), 30 min
# PCO2, 30 min after administration per record follows
Could you give me the number in mmHg? Just the number is fine.

molecule	target_or_test_system	assay_result
Clc1ccsc1CNCCC1(c2ccccn2)CCOC2(CCCC2)C1 (stereo not drawn)	SD rats	33.65

Here is another molecule to look at.
Please fill in: PCO2, 30 min after administration reported for Fc1ccc(C2(CCNCc3ccccc3OC(F)(F)F)CCOC3(CCCC3)C2)nc1 (stereo not drawn) = 36.03

###

experiment: Pharmacokinetic test in rats, intravenous; format: in vivo; details: male, SD, rat, plasma, intravenous 1 mg/kg, read-out: plasma concentration (Cmax)
endpoint: Cmax (ng/mL)
Could you give me the number in ng/mL? Just the number is fine.

compound	Cmax, ng/mL
Cc1ccc(CNCCC2(c3ccccn3)CCOC3(CCCC3)C2)cc1C (stereo not drawn) [Example H07]	483

Please fill in: Cmax reported for FC(F)(F)Oc1cccc(CNCCC2(c3ccccn3)CCOC3(CCCC3)C2)c1 (stereo not drawn) [Example H01] = 202

Please fill in: Cmax reported for Clc1ccsc1CNCCC1(c2ccccn2)CCOC2(CCCC2)C1 (stereo not drawn) [Example H05] = 261

###

biological target: UniProt P35372; experiment: cell-based; conditions: HEK293 stably expressing μ opioid receptor, FLIPR calcium
# pEC50 per record follows
Schema: pEC50 number; meaning minus log10 of the concentration expressed in molar units.

// worked examples, pEC50 included
molecule	target_or_test_system	assay_result
FC(F)(F)Oc1ccc(CNCCC2(c3ccccn3)CCOC3(CCCC3)C2)cc1 (centres unmarked)	UniProt P35372	8.21
Cc1ccc(CNCCC2(c3ccccn3)CCOC3(CCCC3)C2)c(OC(F)(F)F)c1 (centres unmarked)	UniProt P35372	8.69
FC(F)(F)Oc1ccc(Cl)cc1CNCCC1(c2ccccn2)CCOC2(CCCC2)C1 (centres unmarked)	UniProt P35372	8.06

Entry FC(F)(F)Oc1cc(Br)ccc1CNCCC1(c2ccccn2)CCOC2(CCCC2)C1 (centres unmarked) : pEC50 on UniProt P35372 = 8.68

Entry Fc1ccc(C2(CCNCc3sccc3Cl)CCOC3(CCCC3)C2)nc1 (centres unmarked) : pEC50 on UniProt P35372 = 8.25

###

# pEC50 per record follows
target: cAMP pathway of MOR receptor (Homo sapiens, UniProt P35372); assay: cell-based; conditions: cAMP Hunter HEK293 cells, forskolin-induced cAMP; read-out: EC50 of cAMP levels affected by agonistic effect on MOR
Schema: pEC50 number; meaning minus log10 of the concentration expressed in molar units.

// worked examples, pEC50 included
compound	pEC50
FC(F)(F)c1ccsc1CNCCC1(c2ccccn2)CCOC2(CCCC2)C1 (stereo not shown) [Example H14]	7.80
Fc1cnc(C2(CCNCc3ccccc3OC(F)(F)F)CCOC3(CCCC3)C2)c(Cl)c1 (stereo not shown) [Example H09]	8.07
FC(F)(F)Oc1cc(Br)ccc1CNCCC1(c2ccccn2)CCOC2(CCCC2)C1 (stereo not shown) [Example H11]	8.14
Fc1ccc(C2(CCNCc3sccc3OC(F)F)CCOC3(CCCC3)C2)nc1 (stereo not shown) [Example H33]	7.92

Entry COc1ccsc1CNCC(C)C1(c2ccccn2)CCOC2(CCCC2)C1 (stereo not shown) [Example H26] : pEC50 on cAMP pathway of MOR receptor (Homo sapiens, UniProt P35372) = 8.16

Entry Cc1c(Cl)cccc1CNCCC1(c2ccc(F)cn2)CCOC2(CCCC2)C1 (stereo not shown) [Example H32] : pEC50 on cAMP pathway of MOR receptor (Homo sapiens, UniProt P35372) = 7.87

Entry Fc1ccc(C2(CCNCc3ccccc3OC(F)F)CCOC3(CCCC3)C2)nc1 (stereo not shown) [Example H29] : pEC50 on cAMP pathway of MOR receptor (Homo sapiens, UniProt P35372) = 7.98

###

experiment: Pharmacokinetic test in rats, intravenous; assay type: in vivo; settings: male, SD, rat, plasma, intravenous 1 mg/kg, read-out: half life (T½) (converted)
# half-life per record follows
Units required after the number.

compound	assay_result
Cc1c(Cl)cccc1CNCCC1(c2ccccn2)CCOC2(CCCC2)C1 (stereo not drawn)	2.92 h
CNc1ccsc1C(=O)NCCC1(c2ccccn2)CCOC2(CCCC2)C1 (stereo not drawn)	3.05 h

Please fill in: half-life reported for FC(F)(F)Oc1ccc(Cl)cc1CNCCC1(c2ccccn2)CCOC2(CCCC2)C1 (stereo not drawn) = 1.45 h

###

biological target: cAMP pathway of MOR receptor (Homo sapiens); experiment: cell-based; conditions: cAMP Hunter HEK293 cells, forskolin-induced cAMP; read-out: EC50 of cAMP levels affected by agonistic effect on MOR
endpoint: EC50 (nM)
Could you give me the number in nM? Just the number is fine.

// worked examples, EC50 included
compound	EC50 / nM
FC(F)(F)Oc1ccc(CNCCC2(c3ccccn3)CCOC3(CCCC3)C2)cc1 (centres unmarked)	11.8
COc1ccsc1CNC(C)CC1(c2ccccn2)CCOC2(CCCC2)C1 (centres unmarked)	12
FC(F)(F)c1ccc2c(c1)CN(CCC1(c3ccccn3)CCOC3(CCCC3)C1)CC2 (centres unmarked)	18.6
Clc1ccsc1CNCCC1(c2ccccn2)CCOC2(CCCC2)C1 (centres unmarked)	10.2

Please fill in: EC50 reported for Cc1cc(F)cnc1C1(CCNCc2ccccc2OC(F)(F)F)CCOC2(CCCC2)C1 (centres unmarked) = 2.89

###

tested on: SD rats; experiment: Respiratory depression in rats, arterial blood gas PCO2; format: in vivo; settings: intravenous single dose 0.3 mg/kg (morphine 24 mg/kg), 30 min
endpoint: PCO2, 30 min after administration (mmHg)
Could you give me the number in mmHg? Just the number is fine.

// worked examples, PCO2, 30 min after administration included
molecule	unit_info	PCO2, 30 min after administration
CN1CC[C@]23c4c5ccc(O)c4O[C@H]2[C@@H](O)C=C[C@H]3[C@H]1C5 [morphine, reference compound]	mmHg	40.94
Cc1cc(F)cnc1C1(CCNCc2ccccc2OC(F)(F)F)CCOC2(CCCC2)C1 (stereo not shown) [Example H10]	mmHg	35.03
FC(F)Oc1ccsc1CNCCC1(c2ccccn2)CCOC2(CCCC2)C1 (stereo not shown) [Example H18]	mmHg	34.03
FC(F)(F)Oc1ccc(Cl)cc1CNCCC1(c2ccccn2)CCOC2(CCCC2)C1 (stereo not shown) [Example H17]	mmHg	34.03
Cc1ccc(CNCCC2(c3ccccn3)CCOC3(CCCC3)C2)c(C)c1 (stereo not shown) [Example H08]	mmHg	34.03

Please fill in: PCO2, 30 min after administration reported for CNc1ccsc1C(=O)NCCC1(c2ccccn2)CCOC2(CCCC2)C1 (stereo not shown) [Example H24] = 33.03

Please fill in: PCO2, 30 min after administration reported for FC(F)Oc1ccccc1CNCCC1(c2ccccn2)CCOC2(CCCC2)C1 (stereo not shown) [Example H16] = 30.03
